# credit: PubChem BioAssay AID1159580

Assay Notes: chemical genetic growth profiling, strain panel (AID 1159580);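 further: tested at 20 µM; growth read once vehicle control cultures reached saturation at 30 °C; 1 = growth at the plate median or of vehicle wells; lower values mean less growth of the strain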
Experimental Context: S. cerevisiae deletion strains, growth OD, locus YPR025C, strain CCL1, active compounds read low
In all, about 5,500 compounds went through this assay and about 2,000 (36%) were called active. Roughly 18% stayed inconclusive and do not appear here. The list shows a part of the results.
Quick reference for normalized growth among some compounds
Hey, just send me the number, nothing else.

Q. State the recorded normalized growth for this entry: "CC1=CC(=O)C(CCOCCC2=CC(=O)C(C)=CC2=O)=CC1=O"
A. 0.991

Q. State the recorded normalized growth for this entry: "O=C(Oc1cc(Cl)c(Cl)cc1Cl)C1c2ccccc2Oc2ccccc21"
A. 0.939

Q. State the recorded normalized growth for this entry: "O=C(Nc1cc(Cl)cc(Cl)c1)Nc1cc(-c2ccco2)[nH]n1"
A. 0.93

---
Q. State the recorded normalized growth for this entry: "O=C(Nc1cc(Cl)cc(Cl)c1)Nc1cc(-c2cccs2)[nH]n1"
A. 0.963
